target: human leukocyte 5-lipoxygenase (Homo sapiens, UniProt P09917); construct: endogenous in cells; host or cells: leukocytes from fresh blood of normal adult men; experiment: 5-Lipoxygenase inhibition in human leukocytes, 5-HETE formation (5LOA1, 5LOA in Table 6); assay type: cell-based; settings: IC50 (5LOA), 50% inhibition of 5-HETE formation, E -number means X 10^-no.
Sequence (P09917 whole entry): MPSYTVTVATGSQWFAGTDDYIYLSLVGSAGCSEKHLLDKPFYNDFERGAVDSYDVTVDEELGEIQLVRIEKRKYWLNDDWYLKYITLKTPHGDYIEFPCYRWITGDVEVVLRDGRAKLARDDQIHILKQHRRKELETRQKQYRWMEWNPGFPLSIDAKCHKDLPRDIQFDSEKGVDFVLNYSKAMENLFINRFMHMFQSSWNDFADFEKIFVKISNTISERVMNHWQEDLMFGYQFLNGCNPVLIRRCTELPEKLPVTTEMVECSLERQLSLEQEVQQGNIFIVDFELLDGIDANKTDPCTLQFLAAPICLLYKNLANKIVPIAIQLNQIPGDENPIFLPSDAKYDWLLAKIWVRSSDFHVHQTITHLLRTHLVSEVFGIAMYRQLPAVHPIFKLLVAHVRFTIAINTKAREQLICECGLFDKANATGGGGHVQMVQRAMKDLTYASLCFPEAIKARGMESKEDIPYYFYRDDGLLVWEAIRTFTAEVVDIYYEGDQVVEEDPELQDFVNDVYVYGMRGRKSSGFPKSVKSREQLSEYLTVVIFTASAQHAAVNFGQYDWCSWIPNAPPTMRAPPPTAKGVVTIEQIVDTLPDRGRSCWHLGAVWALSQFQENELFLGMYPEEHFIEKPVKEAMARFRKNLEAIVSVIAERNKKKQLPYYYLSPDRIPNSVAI
measured parameter: IC50 (µM)
State the answer as a number, implicitly in µM.

Lookup: So what IC50 did CCCCCCCCCCc1ccc(NC(=O)c2cc([N+](=O)[O-])ccc2O)cc1 get with human leukocyte 5-lipoxygenase (Homo sapiens, UniProt P09917)?
Found: 20.8

###

molecular target: 5-lipoxygenase (isolated human leukocytes) (Homo sapiens); construct: 5-Lipoxygenase Assay Using Isolated Human Leukocytes (5LOA2); endogenous in cells; assay: 5-Lipoxygenase Assay Using Isolated Human Leukocytes (5LOA2); conditions: 5LOA2; 50% inhibition of 5-HETE formation; E -number means X 10^-no.; read-out: Concentration giving 50.00 % Inhibition (5LOA2)
Sequence (P09917 whole entry): as above
measured parameter: pIC50
// returns pIC50 (minus log10 of molar concentration), number only

Lookup: # query: pIC50 of entry COc1ccc(CCc2ccc(NC(=O)c3ccc(C)cc3O)cc2)cc1OC
Found: 5.77

###

target: human leukocyte 5-lipoxygenase (Homo sapiens); construct: endogenous in cells; host or cells: leukocytes from fresh blood of normal adult men; assay: 5-Lipoxygenase inhibition in human leukocytes, 5-HETE formation (5LOA1, 5LOA in Table 6); format: cell-based; settings: 50% inhibition of 5-HETE formation, E -number means X 10^-no., read-out: IC50 (5LOA)
Recorded IC50, one value per entry.
Report only the number, with the unit µM understood.

Lookup: What IC50 value was documented for this compound, Cc1ccc(C(=O)N(C)c2ccc(CCc3ccc(O)c(O)c3)cc2)c(O)c1 [Example 43] ?
Found: 5.3

Lookup: Param item: COc1ccc(C(=O)Nc2ccc(CCc3ccc(O)c(O)c3)cc2)c(O)c1 [Example 8]
Found: 7.1

Lookup: Param item: COc1ccc(CCc2ccc(N(C)C(=O)C(=O)c3ccccc3O)cc2)cc1OC [Example 51]
Found: 11.1

Lookup: What about this compound? COc1ccc(CCc2ccc(NC(=O)c3ccc(C)cc3O)cc2)cc1OC [Example 46]
Found: 0.5

Lookup: Repeat with O=C(Nc1ccc(CCc2ccc(O)c(O)c2)cc1)C(=O)c1ccccc1O [Example 53]
Found: 3.38

Lookup: Ok, now COc1ccc(CCc2ccc(NC(=O)C(=O)c3ccccc3O)cc2)cc1OC [Example 52]
Found: 5

Lookup: Next up: O=C(Nc1ccc(CCc2ccc(Cl)c(Cl)c2)cc1)c1cccc(Cl)c1O [Example 34]
Found: 39.2

###

Target: Human Leukocyte Lipoxygenase
Test: Human Leukocyte Lipoxygenase Assay (LDA-H / LDAH)
Format: biochemical
Conditions: 50% reduction of reaction rate vs control, E -number means X 10^-no.
Method: Human Leukocyte Lipoxygenase Assay (LDA-H) Whole blood is collected from normal volunteers and spun in a refrigerated centrifuge for four minutes at 1°-6° C. at 3800 g. The buffy coat is manually separated and washed twice with chilled 0.83% NH4 Cl and centrifuged at 1000 RPM for ten minutes at 4° C. […] The enzyme reaction is followed spectrophotometrically by the appearance of a conjugated diene product at 234 nm. The reaction is monitored at 24° C. using a Gilford Model 2600 spectrophotometer. […]
Decide using IC50 alone. Strictly below 3 µM: Fulfilled. Equal to or above 3 µM: Not fulfilled.

Sample answers from the record:
In [3]: df
Out[3]:
                         chemical_structure                   measured_on  assigned_class
0  COc1ccc(CCc2ccc(NC(=O)C(=O)c3cccc(Cl)c3O)cc2)cc1OC  Human Leukocyte Lipoxygenase   Not fulfilled
1  COc1ccc(CCc2ccc(NC(=O)c3cccc(Cl)c3O)cc2)cc1OC  Human Leukocyte Lipoxygenase   Not fulfilled
2  COc1ccc(CCc2ccc(NC(=O)C(=O)c3cccc(C(C)(C)C)c3O)cc2)cc1OC  Human Leukocyte Lipoxygenase       Fulfilled
3  COc1ccc(CCc2ccc(NC(=O)c3ccc(C)cc3O)cc2)cc1OC  Human Leukocyte Lipoxygenase   Not fulfilled

Lookup: Lab log: compare recorded IC50 with 3 µM; is it strictly lower for CCCCCCCCCCc1ccc(NC(=O)c2ccc(Cl)cc2O)cc1 ?
Found: Fulfilled

Lookup: Now give it for O=C(Nc1ccc(CCc2ccc(O)c(O)c2)cc1)C(=O)c1ccccc1O too.
Found: Not fulfilled
